# settings: in water, 288.35 K

record_smiles: ClCc1ccc(Cl)nc1
solubility (mole fraction): 0.000215

====

# settings: in ethyl acetate, 299.05 K

record_smiles: ClCc1ccc(Cl)nc1
solubility (mole fraction): 0.0125

====

# settings: in toluene, 295.45 K

record_smiles: ClCc1ccc(Cl)nc1
solubility (mole fraction): 0.0906

====

# settings: in methanol, 305.35 K

record_smiles: ClCc1ccc(Cl)nc1
solubility (mole fraction): 0.00768

====

# settings: in water, 297.65 K

record_smiles: ClCc1ccc(Cl)nc1
solubility (mole fraction): 0.000265

====

# settings: in methanol, 306.55 K

record_smiles: ClCc1ccc(Cl)nc1
solubility (mole fraction): 0.00803

====

# settings: in methanol, 277.25 K

record_smiles: ClCc1ccc(Cl)nc1
solubility (mole fraction): 0.00235

====

# settings: in toluene, 292.15 K

record_smiles: ClCc1ccc(Cl)nc1
solubility (mole fraction): 0.0671

====

# settings: in water, 280.25 K

record_smiles: ClCc1ccc(Cl)nc1
solubility (mole fraction): 0.000174

====

# settings: in water, 304.25 K
property: solubility (mole fraction)

record_smiles: ClCc1ccc(Cl)nc1
recorded_number: 0.000308

====

# settings: in ethanol, 277.65 K

record_smiles: ClCc1ccc(Cl)nc1
solubility (mole fraction): 0.00332

====

# settings: in acetone, 278.85 K

record_smiles: ClCc1ccc(Cl)nc1
solubility (mole fraction): 0.0226

====

# settings: in methanol, 281.35 K

record_smiles: ClCc1ccc(Cl)nc1
solubility (mole fraction): 0.00277

====

# settings: in acetone, 295.85 K

record_smiles: ClCc1ccc(Cl)nc1
solubility (mole fraction): 0.0415

====

# settings: in ethyl acetate, 302.95 K
property: solubility (mole fraction)

record_smiles: ClCc1ccc(Cl)nc1
result: 0.0153

====

# settings: in toluene, 288.15 K

record_smiles: ClCc1ccc(Cl)nc1
solubility (mole fraction): 0.0464

====

# settings: in chloroform, 281.55 K
property: solubility (mole fraction)

record_smiles: ClCc1ccc(Cl)nc1
recorded_number: 0.0235

====

# settings: in toluene, 278.75 K
property: solubility (mole fraction)

record_smiles: ClCc1ccc(Cl)nc1
property: solubility (mole fraction)
recorded_number: 0.0191

====

# settings: in ethyl acetate, 292.95 K
property: solubility (mole fraction)

record_smiles: ClCc1ccc(Cl)nc1
property: solubility (mole fraction)
result: 0.00939

====

# settings: in ethanol, 304.15 K

record_smiles: ClCc1ccc(Cl)nc1
solubility (mole fraction): 0.0112

====

# settings: in ethyl acetate, 306.45 K

record_smiles: ClCc1ccc(Cl)nc1
solubility (mole fraction): 0.0176

====

# settings: in ethanol, 284.75 K
property: solubility (mole fraction)

record_smiles: ClCc1ccc(Cl)nc1
property: solubility (mole fraction)
recorded_number: 0.00456

====

# settings: in methanol, 299.25 K

record_smiles: ClCc1ccc(Cl)nc1
solubility (mole fraction): 0.00607

====

# settings: in water, 301.25 K
property: solubility (mole fraction)

record_smiles: ClCc1ccc(Cl)nc1
recorded_number: 0.000288

====

# settings: in acetone, 291.15 K
property: solubility (mole fraction)

record_smiles: ClCc1ccc(Cl)nc1
property: solubility (mole fraction)
recorded_number: 0.0353

====

# settings: in toluene, 283.25 K

record_smiles: ClCc1ccc(Cl)nc1
solubility (mole fraction): 0.0293

====

# settings: in ethanol, 292.65 K

record_smiles: ClCc1ccc(Cl)nc1
solubility (mole fraction): 0.00661

====

# settings: in ethanol, 289.65 K

record_smiles: ClCc1ccc(Cl)nc1
solubility (mole fraction): 0.00576

====

# settings: in chloroform, 298.55 K
property: solubility (mole fraction)

record_smiles: ClCc1ccc(Cl)nc1
recorded_number: 0.0665

====

# settings: in acetone, 281.75 K
property: solubility (mole fraction)

record_smiles: ClCc1ccc(Cl)nc1
property: solubility (mole fraction)
result: 0.0249

====

# settings: in methanol, 303.75 K
property: solubility (mole fraction)

record_smiles: ClCc1ccc(Cl)nc1
recorded_number: 0.00722

====

# settings: in ethanol, 287.35 K

record_smiles: ClCc1ccc(Cl)nc1
solubility (mole fraction): 0.00521

====

# settings: in ethanol, 279.75 K

record_smiles: ClCc1ccc(Cl)nc1
solubility (mole fraction): 0.00365

====

# settings: in ethanol, 307.25 K

record_smiles: ClCc1ccc(Cl)nc1
solubility (mole fraction): 0.0127

====

# settings: in acetone, 307.05 K

record_smiles: ClCc1ccc(Cl)nc1
solubility (mole fraction): 0.0604

====

# settings: in acetone, 288.95 K

record_smiles: ClCc1ccc(Cl)nc1
solubility (mole fraction): 0.0325

====

# settings: in acetone, 297.65 K
property: solubility (mole fraction)

record_smiles: ClCc1ccc(Cl)nc1
property: solubility (mole fraction)
result: 0.0442

====

# settings: in chloroform, 302.75 K

record_smiles: ClCc1ccc(Cl)nc1
solubility (mole fraction): 0.0858

====

# settings: in ethyl acetate, 280.05 K

record_smiles: ClCc1ccc(Cl)nc1
solubility (mole fraction): 0.00488

====

# settings: in acetone, 293.65 K
property: solubility (mole fraction)

record_smiles: ClCc1ccc(Cl)nc1
recorded_number: 0.0385

====

# settings: in toluene, 293.75 K

record_smiles: ClCc1ccc(Cl)nc1
solubility (mole fraction): 0.0776

====

# settings: in chloroform, 297.65 K

record_smiles: ClCc1ccc(Cl)nc1
solubility (mole fraction): 0.063

====

# settings: in ethanol, 295.35 K

record_smiles: ClCc1ccc(Cl)nc1
solubility (mole fraction): 0.00749

====

# settings: in water, 292.15 K
property: solubility (mole fraction)

record_smiles: ClCc1ccc(Cl)nc1
property: solubility (mole fraction)
recorded_number: 0.000234

====

# settings: in chloroform, 279.35 K

record_smiles: ClCc1ccc(Cl)nc1
solubility (mole fraction): 0.0204

====

# settings: in methanol, 284.35 K
property: solubility (mole fraction)

record_smiles: ClCc1ccc(Cl)nc1
recorded_number: 0.00319

====

# settings: in ethanol, 301.85 K

record_smiles: ClCc1ccc(Cl)nc1
solubility (mole fraction): 0.0102

====

# settings: in ethyl acetate, 290.45 K

record_smiles: ClCc1ccc(Cl)nc1
solubility (mole fraction): 0.00825

====

# settings: in chloroform, 275.85 K

record_smiles: ClCc1ccc(Cl)nc1
solubility (mole fraction): 0.0164

====

# settings: in toluene, 287.35 K

record_smiles: ClCc1ccc(Cl)nc1
solubility (mole fraction): 0.043

====

# settings: in chloroform, 287.45 K
property: solubility (mole fraction)

record_smiles: ClCc1ccc(Cl)nc1
recorded_number: 0.0339

====

# settings: in ethyl acetate, 278.35 K
property: solubility (mole fraction)

record_smiles: ClCc1ccc(Cl)nc1
recorded_number: 0.00447

====

# settings: in ethanol, 305.85 K

record_smiles: ClCc1ccc(Cl)nc1
solubility (mole fraction): 0.012

====

# settings: in acetone, 300.35 K
property: solubility (mole fraction)

record_smiles: ClCc1ccc(Cl)nc1
result: 0.0486

====

# settings: in water, 308.75 K
property: solubility (mole fraction)

record_smiles: ClCc1ccc(Cl)nc1
property: solubility (mole fraction)
recorded_number: 0.000332

====

# settings: in methanol, 288.85 K

record_smiles: ClCc1ccc(Cl)nc1
solubility (mole fraction): 0.00392

====

# settings: in water, 305.85 K

record_smiles: ClCc1ccc(Cl)nc1
solubility (mole fraction): 0.00032

====

# settings: in toluene, 305.55 K
property: solubility (mole fraction)

record_smiles: ClCc1ccc(Cl)nc1
recorded_number: 0.223

====

# settings: in ethyl acetate, 296.15 K
property: solubility (mole fraction)

record_smiles: ClCc1ccc(Cl)nc1
property: solubility (mole fraction)
result: 0.011

====

# settings: in ethyl acetate, 288.15 K

record_smiles: ClCc1ccc(Cl)nc1
solubility (mole fraction): 0.00731

====

# settings: in ethanol, 282.05 K
property: solubility (mole fraction)

record_smiles: ClCc1ccc(Cl)nc1
result: 0.00406

====

# settings: in chloroform, 290.35 K

record_smiles: ClCc1ccc(Cl)nc1
solubility (mole fraction): 0.0405

====

# settings: in acetone, 304.85 K
property: solubility (mole fraction)

record_smiles: ClCc1ccc(Cl)nc1
property: solubility (mole fraction)
recorded_number: 0.0566

Cited source: BigSolDB 2.1
